Cited source for all entries: patent US8710178B2

For each record, write down the corresponding pIC50.
Target: calpain I (μ calpain) (Homo sapiens)
Sequence (P07384 1-714): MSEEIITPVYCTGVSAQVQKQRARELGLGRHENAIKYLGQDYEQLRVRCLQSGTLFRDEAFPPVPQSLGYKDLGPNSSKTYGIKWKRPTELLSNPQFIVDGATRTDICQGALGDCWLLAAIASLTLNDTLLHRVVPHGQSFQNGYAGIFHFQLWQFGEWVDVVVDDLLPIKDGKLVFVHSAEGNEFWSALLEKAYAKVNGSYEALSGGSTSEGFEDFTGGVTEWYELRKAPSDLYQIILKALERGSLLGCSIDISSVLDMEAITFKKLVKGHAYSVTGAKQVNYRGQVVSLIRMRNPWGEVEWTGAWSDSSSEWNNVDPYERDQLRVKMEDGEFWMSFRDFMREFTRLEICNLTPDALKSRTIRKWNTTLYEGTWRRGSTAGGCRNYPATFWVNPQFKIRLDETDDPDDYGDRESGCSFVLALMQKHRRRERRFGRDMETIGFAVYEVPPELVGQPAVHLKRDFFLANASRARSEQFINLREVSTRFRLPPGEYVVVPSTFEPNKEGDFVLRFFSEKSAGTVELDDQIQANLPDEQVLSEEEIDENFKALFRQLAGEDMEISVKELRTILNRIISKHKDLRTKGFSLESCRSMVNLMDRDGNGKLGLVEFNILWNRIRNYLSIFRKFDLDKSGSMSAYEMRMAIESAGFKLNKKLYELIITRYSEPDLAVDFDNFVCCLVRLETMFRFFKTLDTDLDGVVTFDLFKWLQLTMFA
Sequence (P04632 1-268 partner): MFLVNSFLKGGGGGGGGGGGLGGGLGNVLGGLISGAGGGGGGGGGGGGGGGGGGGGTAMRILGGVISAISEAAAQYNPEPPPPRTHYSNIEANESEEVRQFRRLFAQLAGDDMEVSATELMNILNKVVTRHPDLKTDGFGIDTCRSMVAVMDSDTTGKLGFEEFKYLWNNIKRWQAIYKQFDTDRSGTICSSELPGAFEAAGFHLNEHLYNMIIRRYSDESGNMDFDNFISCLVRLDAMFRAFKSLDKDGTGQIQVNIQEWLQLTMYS
Answers are plain numbers, as −log10 of the molar value.

Some entries whose results are on file:
| compound | pIC50 |
| --- | --- |
| CC(C)C[C@@H]1NC(=O)[C@@H](NC(=O)OCc2ccccc2)Cc2ccc(cc2)OCCCCC[C@@H](C=O)NC1=O [Compound 28] | 6.77 |
| CC(C)C[C@@H]1NC(=O)[C@@H](NC(=O)OCc2ccccc2)Cc2ccc(cc2)OCCCC[C@@H](CO)NC1=O [Compound 8] | 5.76 |

Provide reported pIC50 for each item, in the same order as listed.
1. CC(C)C[C@@H]1NC(=O)[C@@H](NC(=O)OCc2ccccc2)Cc2ccc(cc2)OCCCC[C@@H](C(O)C#N)NC1=O (some centres unmarked) [Compound 80]
2. CC(C)C[C@@H]1NC(=O)[C@@H](NC(=O)OCc2ccccc2)Cc2ccc(cc2)OCCCC[C@@H](C=O)NC1=O [Compound 9]

1. 4.46
2. 6.65
